test: Mouse liver microsome stability; type: in vitro ADME; details: mouse liver microsomes
quantity: microsomal CLint (µL/min/mg)
Provide the reading as a plain figure in µL/min/mg.

Please supply the value of reported microsomal CLint for the item "CCNc1cc(C)nc(Nc2ccc(NC(=O)c3cccc(Br)c3)cc2)n1"
14.6

###

quantity: melting point

The cases that follow already have their melting point on record.
- compound: "CCNc1cc(C)nc(Nc2ccc(NC(=O)c3ccccc3)cc2)n1 [H U Et]"
  result: "225 to 226 °C"
- compound: "CCNc1nc(C)cc(Nc2ccc(NC(=O)c3cccc(Br)c3)cc2)n1 [Br U Et iso (Cpd 6 iso)]"
  result: "260 to 264 °C"

Fill in melting point for record CCNc1cc(C)nc(Nc2ccc(NC(=O)c3ccc(C)cc3)cc2)n1 [4Me U Et]
297 to 300 °C

Return reported melting point. Input compound: CCNc1nc(Nc2ccc(NC(=O)c3cccc(Br)c3)cc2)ncc1C [Br T Et]
> 230 °C

Given CNc1cc(C)nc(Nc2ccc(NC(=O)c3cccc(Br)c3)cc2)n1 [Br Me] , respond with its melting point.
301 to 303 °C

Answer with reported melting point of CCNc1cc(C)nc(Nc2ccc(NC(=O)c3cccc(F)c3)cc2)n1 [F U Et]
259 to 263 °C

Kindly indicate its recorded melting point. Item: Cc1cc(NC(C)C)nc(Nc2ccc(NC(=O)c3cccc(Br)c3)cc2)n1 [Br iso]
183 to 185 °C

Provide measured melting point value, entry: CCNc1cc(C)nc(Nc2ccc(NC(=O)c3cccc(O)c3)cc2)n1 [3OH U Et]
283 to 285 °C

Supply measured melting point of CCNc1nc(Nc2ccc(NC(=O)c3ccccc3)cc2)ncc1C [H T Et] in your reply.
> 230 °C

Report melting point, nothing else, for this compound: CCOC(=O)CNc1cc(C)nc(Nc2ccc(NC(=O)c3cccc(Br)c3)cc2)n1 [Br Gly]
> 230 °C

Give recorded melting point. CCNc1cc(C)nc(Nc2ccc(NC(=O)c3ccc(OC)cc3)cc2)n1 [4OMe U Et]
285 to 288 °C

// Input: Cc1cc(NCCO)nc(Nc2ccc(NC(=O)c3cccc(Br)c3)cc2)n1 [Br EtOH] . Output its melting point only.
237 to 241 °C

Identify the reported melting point for the following entry. CCNc1ccnc(Nc2ccc(NC(=O)c3cccc(Br)c3)cc2)n1 [Br desMe]
229 to 231 °C

Just for reference, patent US11078165B2 is where these values come from.
